- system under test: T1, Human IL2Rγ extracellular domain expressed with a C-terminal myc-myc-hexahistidine tag (human)
- T1 construct: also called hIL-2Rg-MMH; hIL-2RG-MMH
- T1 chain: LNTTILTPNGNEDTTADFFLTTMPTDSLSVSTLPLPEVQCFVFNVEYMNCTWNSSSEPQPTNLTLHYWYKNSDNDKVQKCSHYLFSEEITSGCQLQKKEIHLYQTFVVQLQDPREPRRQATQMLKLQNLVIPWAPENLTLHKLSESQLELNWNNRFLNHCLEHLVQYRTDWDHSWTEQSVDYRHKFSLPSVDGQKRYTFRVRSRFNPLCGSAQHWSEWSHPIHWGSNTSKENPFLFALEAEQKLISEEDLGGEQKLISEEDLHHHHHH
- test summary: SPR Biacore 4000, mAb captured by anti-hFc, HBS-ET, 37C
Here, each record is paired with measured kon data.
Reply with just the number (in M⁻¹ s⁻¹).

H4H13541P (antibody, human IgG4 S228P, kappa, V domains shown, anti-IL2Rγ monoclonal antibody expressed with human IgG4 Fc) VH: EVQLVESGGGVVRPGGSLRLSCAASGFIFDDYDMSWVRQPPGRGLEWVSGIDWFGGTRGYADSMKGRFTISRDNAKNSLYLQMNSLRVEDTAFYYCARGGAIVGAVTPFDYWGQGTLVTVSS VL: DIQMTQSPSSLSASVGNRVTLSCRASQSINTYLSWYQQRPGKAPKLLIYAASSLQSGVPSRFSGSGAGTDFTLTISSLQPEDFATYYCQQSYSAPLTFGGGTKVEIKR ... 156000
H4H12899P (antibody, human IgG4 S228P, kappa, V domains shown, anti-IL2Rγ monoclonal antibody expressed with human IgG4 Fc) VH: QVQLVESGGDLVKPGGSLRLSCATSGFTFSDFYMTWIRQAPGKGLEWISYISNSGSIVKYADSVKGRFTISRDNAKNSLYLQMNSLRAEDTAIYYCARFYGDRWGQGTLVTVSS VL: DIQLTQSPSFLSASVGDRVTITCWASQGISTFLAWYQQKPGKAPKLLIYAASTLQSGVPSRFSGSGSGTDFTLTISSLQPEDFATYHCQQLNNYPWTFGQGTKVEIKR ... 342000

Let us move to another entry and its kon.
So what does the record say about kon for H4H12858P (antibody, human IgG4 S228P, kappa, V domains shown, anti-IL2Rγ monoclonal antibody expressed with human IgG4 Fc; also called REGN9433) VH: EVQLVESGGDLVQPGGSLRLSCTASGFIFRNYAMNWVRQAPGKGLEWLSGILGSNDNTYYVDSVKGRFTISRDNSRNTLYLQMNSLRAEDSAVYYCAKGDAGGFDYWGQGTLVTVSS VL: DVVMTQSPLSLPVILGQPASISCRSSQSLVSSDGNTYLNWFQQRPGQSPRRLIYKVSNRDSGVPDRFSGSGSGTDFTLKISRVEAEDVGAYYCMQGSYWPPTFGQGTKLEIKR ?
386000
